# target_or_system: SARS-CoV-2 S-RBD with Avi-tag and deca-His tag (residues 330-531) (SARS-CoV-2, UniProt P0DTC2, biotin on the Avi tag (BirA) where immobilised on streptavidin sensors or used in ELISA and FSEC)

{"columns": ["binder", "binding result"],
 "data": [
  ["LR3 (VHH) VHH: QVQLVESGGGSVQAGGSLRLSCAASGTINNITYLGWFRQAPGKEREGVAALITTSGYTYYADSVKGRFTVSLDNAKNTVYLQMNSLKPEDTALYYCAAASWGYEWPLVYDDYWYWGQGTQVTVS", "binds"],
  ["SR51 (VHH) VHH: QVQLVESGGGLVQAGGSLRLSCAASGFPVWESYMRWYRQAPGKEREWVAAIQSNGNNTWYADSVKGRFTISRDNAKNTVYLQMNSLKPEDTAVYYCVVYVGYEYHGQGTQVTVS", "binds"],
  ["SR15 (VHH) VHH: QVQLVESGGGLVQAGGSLRLSCAASGFPVKHAEMEWYRQAPGKEREWVAAISSNGSETYYADSVKGRFTISRDNAKNTVYLQMNSLKPEDTAVYYCYVWVGQSYIGQGTQVTVS", "binds"]
]}

// provenance: paper PMC8324831
